experiment: Release rate of pesticides from controlled release devices, one inch squares of 1/8 inch sheets (Example 3); format: physicochemical; settings: EVA 763, 10 percent pesticide
Items are presented alongside their recorded Release Rate.
Quick reminder: number only, in μg/cm^2/day, skip the unit.

Examples with their reported Release Rate follow.
> print(dat)
                                   compound  quantity.measured  output.unit  experimental.result
1  CC1(C)C(C=C(Cl)Cl)C1C(=O)OCc1cccc(Oc2ccccc2)c1 (stereo not shown)       Release Rate  μg/cm^2/day                 28.5
2  CC1(C)C(C=C(Cl)Cl)C1C(=O)OC(C#N)c1cccc(Oc2ccccc2)c1 (stereo not shown)       Release Rate  μg/cm^2/day                 27.3

stdin: Please indicate Release Rate recorded for Cc1c(F)c(F)c(COC(=O)[C@@H]2[C@H](/C=C(\Cl)C(F)(F)F)C2(C)C)c(F)c1F (racemic)
stdout: 40.4

stdin: # return recorded Release Rate for entry CC1(C)[C@H](C(=O)O[C@H](C#N)c2cccc(Oc3ccccc3)c2)[C@@H]1/C=C(\Cl)C(F)(F)F (racemic)
stdout: 27.3

====

assay: Release rate of pesticides from controlled release devices, one inch squares of 1/8 inch sheets (Example 3); format: physicochemical; conditions: Polyurethane 3100, 10 percent pesticide
As shown below, each of these compounds has a reported Release Rate value.
Please make sure the unit comes right after the number.

> print(dat)
                                   compound  experimental.result
1  CC1(C)C(C=C(Cl)Cl)C1C(=O)OC(C#N)c1cccc(Oc2ccccc2)c1 (stereo not shown)      0.4 μg/cm^2/day
2  CC1(C)C(C=C(Cl)Cl)C1C(=O)OCc1cccc(Oc2ccccc2)c1 (stereo not shown)      1.4 μg/cm^2/day
3  Cc1c(F)c(F)c(COC(=O)[C@@H]2[C@H](/C=C(\Cl)C(F)(F)F)C2(C)C)c(F)c1F (racemic)      6.4 μg/cm^2/day

API: the following record is the query input.
stdin: Please report Release Rate for the following compound: CC1(C)[C@H](C(=O)O[C@H](C#N)c2cccc(Oc3ccccc3)c2)[C@@H]1/C=C(\Cl)C(F)(F)F (racemic)
stdout: 0.4 μg/cm^2/day
